- Test Protocol: GC-MS head space ratio of perfume raw materials with versus without polyamine polymer (R)
- Assay type: physicochemical
- Applied Conditions: aqueous fabric refresher formulation pH 6.8, 0.05% Lupamin 1595; head space after 1 hr room temperature and 20 minutes at 40° C.; Control without polyamine polymer = 1.000
- Description: R=head space of aqueous composition containing polyamine/head space of aqueous composition nil polyamine polymer Polyamine polymer perfume interactions were studied in aqueous fabric refresher formulations. […] GC-MS was used to study polymer perfume aldehyde interactions using the formulations prepared in Example 1. […] Then, 1 ml of head space was injected into GC-MS using 1 to 10 split, and perfume raw material intensities were measured. […]
Experimental Endpoint: GC-MS head space peak area ratio normalized to Control

Looking up CC(=O)c1cccs1 [2-acetyl thiophene] , I found its GC-MS head space peak area ratio normalized to Control recorded as 0.794

Looking up O=Cc1ccccc1 [Benzaldehyde] , I found its GC-MS head space peak area ratio normalized to Control recorded as 1.030

Looking up CC(C)=CCCC(C)CCCC(C)C=O (stereo not shown) [Adoxal] , I found its GC-MS head space peak area ratio normalized to Control recorded as 0.751

Looking up CC(=O)c1ccc(C(C)=O)cc1 [1,4-diacety lbenzene] , I found its GC-MS head space peak area ratio normalized to Control recorded as 0.913

Looking up CC(=O)/C=C/C1=C(C)CCCC1(C)C [Beta Ionone] , I found its GC-MS head space peak area ratio normalized to Control recorded as 1.222

Looking up CCCCCC=O [Hexanal] , I found its GC-MS head space peak area ratio normalized to Control recorded as 0.222

Looking up CCCC(C)C=O (stereo not shown) [2-methyl petanal] , I found its GC-MS head space peak area ratio normalized to Control recorded as 0.864

Looking up CC(C)CCCC(C)CC=O (stereo not shown) [Tetrahydrogeranial] , I found its GC-MS head space peak area ratio normalized to Control recorded as 0.415

Looking up CCCCCCCCC=O [Nonaldehyde] , I found its GC-MS head space peak area ratio normalized to Control recorded as 0.209

Looking up CCC/C=C/C=O [Trans-2-hexenal] , I found its GC-MS head space peak area ratio normalized to Control recorded as 0.226

Looking up CCCCCCCCCCC=CC=O [Tridecenal] , I found its GC-MS head space peak area ratio normalized to Control recorded as 0.470

Looking up CC(C)c1ccc(C=O)cc1 [Cuminaldehyde] , I found its GC-MS head space peak area ratio normalized to Control recorded as 0.977

Looking up CCCCCCCCCCCC=O [Lauric Aldehyde] , I found its GC-MS head space peak area ratio normalized to Control recorded as 0.169

====

Kindly state GC-MS head space peak area ratio normalized to Control for each of the entries shown.
- Test Protocol: GC-MS head space ratio of perfume raw materials with versus without polyamine polymer (R)
- Assay type: physicochemical
- Applied Conditions: aqueous fabric refresher formulation pH 6.8, 0.05% Lupamin 1595; head space after 1 hr room temperature and 20 minutes at 40° C.; Control without polyamine polymer = 1.000
A bare number is all that is needed in reply.

Looking up CC(C)=CCCC(C)CC=O (stereo not drawn) , I found its GC-MS head space peak area ratio normalized to Control recorded as 2.597

Looking up CCCCCCCCCC(C)C=O (stereo not drawn) , I found its GC-MS head space peak area ratio normalized to Control recorded as 0.772

Looking up C=C(C)C1CC=C(C)C(=O)C1 (stereo not drawn) , I found its GC-MS head space peak area ratio normalized to Control recorded as 1.103

Looking up `CCCCCCC(C=O)=Cc1ccccc1` , I found its GC-MS head space peak area ratio normalized to Control recorded as 1.480

Looking up CCCCCCCCC(C)C=O (stereo not drawn) , I found its GC-MS head space peak area ratio normalized to Control recorded as 0.836

Looking up `CC(C)=CCC/C(C)=C\C=O` , I found its GC-MS head space peak area ratio normalized to Control recorded as 0.261

Looking up O=CCCC=C1CC2CC1C1CCCC21 (stereo not drawn) , I found its GC-MS head space peak area ratio normalized to Control recorded as 0.932

Looking up `COc1ccc(C=O)cc1` , I found its GC-MS head space peak area ratio normalized to Control recorded as 1.521

Looking up C/C=C/C(=O)C1C(C)C=CCC1(C)C (stereo not drawn) , I found its GC-MS head space peak area ratio normalized to Control recorded as 1.228
